Tested on: HBV viral production from HepAD38 cells
Assay: Activity of test compounds on viral production from HepAD38 cells (viral load by qPCR of HBV core sequence in supernatant)
Format: cell-based
Settings: Hepatitis B virus, 120 h, 5 days incubation, HBV DNA in supernatant by qPCR, top concentration 10 μM, read-out: Viral Load EC50 Activity range
pEC50: −log10 of the molar value.
measured.property: pEC50

Some solved cases for reference:
- compound: "CN1C(C(=O)Nc2ccc(F)c(Cl)c2)CC(c2cnc(C(F)(F)F)s2)NS1(=O)=O (stereo not shown)"
  pEC50: "5.30 to 6.00"
- compound: "CN1C(C(=O)Nc2ccc(F)c(Cl)c2)CC(C2CCCC2)NS1(=O)=O (racemic)"
  pEC50: "> 6.00"

Output measured pEC50 for this item: CN1[C@H](C(=O)Nc2ccc(F)c(Cl)c2)C[C@H](c2ccc(-c3cnn(C)c3)s2)NS1(=O)=O > 6.00

Output measured pEC50 for this item: Cc1nn(C)cc1-c1csc([C@H]2C[C@@H](C(=O)Nc3ccc(F)c(Cl)c3)N(C)S(=O)(=O)N2)c1 > 6.00

Output measured pEC50 for this item: [2H]C([2H])([2H])N1[C@@H](C(=O)Nc2ccc(F)c(Cl)c2)C[C@@H](c2ccc(-c3cn(C([2H])([2H])[2H])cn3)s2)NS1(=O)=O (stereo in doubt) > 6.00

Output measured pEC50 for this item: [2H]C1[C@]([2H])(c2ccc(-c3cn(C)cn3)s2)NS(=O)(=O)N(C)[C@]1([2H])C(=O)Nc1ccc(F)c(Cl)c1 (stereo in doubt) > 6.00

Output measured pEC50 for this item: CN1C(C(=O)Nc2ccc(F)c(Cl)c2)CC(c2ncc(-c3cncs3)s2)NS1(=O)=O (racemic) > 6.00

====

Test system: HBV viral production from HepAD38 cells
Experiment: Activity of test compounds on viral production from HepAD38 cells (viral load by qPCR of HBV core sequence in supernatant)
Assay type: cell-based
Conditions: Hepatitis B virus, 120 h, 5 days incubation, HBV DNA in supernatant by qPCR, top concentration 10 μM, read-out: Viral Load EC50 Activity range
pEC50: −log10 of the molar value.
measured.property: pEC50

Some solved cases for reference:
- compound: "[2H]C1[C@]([2H])(C(=O)Nc2ccc(F)c(Cl)c2)N(C([2H])([2H])[2H])S(=O)(=O)N[C@]1([2H])c1ncc(-c2cn(C([2H])([2H])[2H])cn2)s1 (stereo in doubt)"
  value.measured: "5.30 to 6.00"
- compound: "CN1[C@@H](C(=O)Nc2ccc(F)c(Cl)c2)C[C@@H](c2ncc(-c3ccccn3)s2)NS1(=O)=O"
  value.measured: "< 5.30"
- compound: "CN1[C@@H](C(=O)Nc2ccc(F)c(Cl)c2)C[C@@H](c2ccc(C(F)(F)F)cc2)NS1(=O)=O (stereo in doubt)"
  value.measured: "> 6.00"
- compound: "COCCN1[C@H](C(=O)Nc2ccc(F)c(Cl)c2)C[C@H](c2nccs2)NS1(=O)=O"
  value.measured: "> 6.00"
- compound: "CN1C(C(=O)Nc2ccc(F)c(Cl)c2)CC(c2cccnc2)NS1(=O)=O (stereo not drawn)"
  value.measured: "> 6.00"
- compound: "CN1C(C(=O)Nc2ccc(F)c(Cl)c2)CC(c2ncc(-c3cccnc3)s2)NS1(=O)=O (racemic)"
  value.measured: "> 6.00"

Output measured pEC50 for this item: CN1C(C(=O)Nc2ccc(F)c(F)c2)CC(c2cccs2)NS1(=O)=O (stereo not drawn) > 6.00

Output measured pEC50 for this item: O=C(Nc1ccc(F)c(Cl)c1)[C@@H]1C[C@H](c2nccs2)NS(=O)(=O)N1 > 6.00

Output measured pEC50 for this item: CN1C(C(=O)Nc2ccc(F)c(Cl)c2)CC(c2cc(-c3ccc(C(F)(F)F)nc3)cs2)NS1(=O)=O (racemic) > 6.00

Output measured pEC50 for this item: Cc1cc(C2CC(C(=O)Nc3ccc(F)c(Cl)c3)N(C)S(=O)(=O)N2)sc1Br (stereo not drawn) > 6.00

====

Tested on: HBV viral production from HepAD38 cells
Test: Activity of test compounds on viral production from HepAD38 cells (viral load by qPCR of HBV core sequence in supernatant)
Type: cell-based
Conditions: Hepatitis B virus, 120 h, 5 days incubation, HBV DNA in supernatant by qPCR, top concentration 10 μM, read-out: Viral Load EC50 Activity range
Experimental: Assay Measuring Activity of Test Compounds on Viral Production from HepAD38 Cells […] Subsequently viral load production was assayed by quantitative PCR (qPCR) of the HBV core sequence. […] Viral load was quantified against known HBV DNA standards by using ViiA™ 7 Software. […] Incubated the plate at room temperature for 10 min on an orbital shaker, and then read the plate with a plate reader (TECAN M1000 or Envision). […]
pEC50: −log10 of the molar value.
In this section we review reported pEC50 values for a set of molecules.

Some solved cases for reference:
- molecule: "CN1C(C(=O)Nc2ccc(F)c(Cl)c2)CC(c2ncc(-c3ccnn3C)s2)NS1(=O)=O (racemic) [HBV-CSU-281]"
  pEC50: "> 6.00"
- molecule: "CN1[C@H](C(=O)Nc2cc(F)c(F)c(F)c2)C[C@H](c2ccc(F)cc2)NS1(=O)=O [HBV-CSU-212-ISO-I]"
  pEC50: "> 6.00"
- molecule: "[2H]C1[C@]([2H])(c2ncc(-c3cn(C)cn3)s2)NS(=O)(=O)N(C([2H])([2H])[2H])[C@]1([2H])C(=O)Nc1ccc(F)c(Cl)c1 (stereo in doubt) [HBV-CSU-340-ISO-I]"
  pEC50: "> 6.00"
- molecule: "CN1C(C(=O)Nc2ccc(F)c(Cl)c2)CC(c2ccc(C(N)=O)cc2)NS1(=O)=O (racemic) [HBV-CSU-214]"
  pEC50: "> 6.00"

Output measured pEC50 for this item: CN(C)CCCOc1cccc(C2CC(C(=O)Nc3ccc(F)c(Cl)c3)N(C)S(=O)(=O)N2)c1 (stereo not shown) [HBV-CSU-209] > 6.00

Output measured pEC50 for this item: CN1[C@H](C(=O)Nc2ccc(F)c(Cl)c2)C[C@H](c2ccc(-c3ncnn3C)s2)NS1(=O)=O [HBV-CSU-323-ISO-I] > 6.00

Output measured pEC50 for this item: O=C(O)CN1C(C(=O)Nc2ccc(F)c(Cl)c2)CC(c2nccs2)NS1(=O)=O (stereo not shown) [HBV-CSU-110] < 5.30

====

Tested on: HBV viral production from HepAD38 cells
Experiment: Activity of test compounds on viral production from HepAD38 cells (viral load by qPCR of HBV core sequence in supernatant)
Format: cell-based
Settings: Hepatitis B virus, 120 h, 5 days incubation, HBV DNA in supernatant by qPCR, top concentration 10 μM, read-out: Viral Load EC50 Activity range
measured.property: EC50

- compound: "CCOCCN1[C@@H](C(=O)Nc2ccc(F)c(Cl)c2)C[C@@H](c2nccs2)NS1(=O)=O [HBV-CSU-142-ISO-I]"
  target.of.assay: "HBV viral production from HepAD38 cells"
  EC50: "1000 to 5000 nM"

Output measured EC50 for this item: CN1C(C(=O)Nc2cc(F)c(F)c(F)c2)CC(c2cccs2)NS1(=O)=O (racemic) [HBV-CSU-036] < 1000 nM

Output measured EC50 for this item: CC(C)(C)OCCN1[C@@H](C(=O)Nc2ccc(F)c(Cl)c2)C[C@@H](c2nccs2)NS1(=O)=O (relative stereo) [HBV-CSU-071-ISO-II] 1000 to 5000 nM

Output measured EC50 for this item: CN1[C@H](C(=O)Nc2ccc(F)c(Cl)c2)C[C@H](c2ccc(-c3cncs3)s2)NS1(=O)=O [HBV-CSU-268-ISO-I] < 1000 nM

====

In this section we review reported pEC50 values for a set of compounds.
System: HBV viral production from HepAD38 cells
Assay: Activity of test compounds on viral production from HepAD38 cells (viral load by qPCR of HBV core sequence in supernatant)
Type: cell-based
Conditions: Hepatitis B virus, 120 h, 5 days incubation, HBV DNA in supernatant by qPCR, top concentration 10 μM, read-out: Viral Load EC50 Activity range
Experimental: Assay Measuring Activity of Test Compounds on Viral Production from HepAD38 Cells […] Subsequently viral load production was assayed by quantitative PCR (qPCR) of the HBV core sequence. […] Viral load was quantified against known HBV DNA standards by using ViiA™ 7 Software. […] Incubated the plate at room temperature for 10 min on an orbital shaker, and then read the plate with a plate reader (TECAN M1000 or Envision). […]
pEC50: −log10 of the molar value.

- compound: "CN1C(C(=O)Nc2ccc(F)c(Cl)c2)CC(c2cc(Br)c(Cl)s2)NS1(=O)=O (centres unmarked)"
  value.measured: "> 6.00"
- compound: "[2H]C([2H])([2H])N1[C@H](C(=O)Nc2ccc(F)c(Cl)c2)C[C@H](c2ncc(Br)s2)NS1(=O)=O"
  value.measured: "> 6.00"
- compound: "CN1C(C(=O)Nc2ccc(F)c(Cl)c2)CC(c2cc(Br)cs2)NS1(=O)=O (centres unmarked)"
  value.measured: "> 6.00"
- compound: "C[C@@H]1C[C@H](C(=O)Nc2ccc(F)c(Cl)c2)N(C)S(=O)(=O)N1"
  value.measured: "< 5.30"
- compound: "CN1C(C(=O)Nc2ccc(F)c(Cl)c2)CC(c2ccc(C(F)(F)F)s2)NS1(=O)=O (racemic)"
  value.measured: "> 6.00"

Output measured pEC50 for this item: CN1[C@H](C(=O)Nc2ccc(F)c(Cl)c2)C[C@H](c2ccc(-c3ccc(C#N)c(F)c3)s2)NS1(=O)=O > 6.00

Output measured pEC50 for this item: CN1C(C(=O)Nc2ccc(F)c(Cl)c2)CC(c2ccc(F)cn2)NS1(=O)=O (centres unmarked) > 6.00
